Where a name gives a salt, the structure may show the parent alone.
Output Y for melting point not less than 200 °C; output N otherwise.

> print(dat)
                                   molecule  class
1  Cc1cc(C)c2nc(NCCCO)n(Cc3nc(C)ccc3O)c2c1 (as salt: salt)      N
2  CCOC(=O)CCNc1nc2c(C)cc(C)cc2n1Cc1nc(C)ccc1O (as salt: salt)      N
3  Cc1cc(C)c2nc(NCCC(N)=O)n(Cc3nc(C)ccc3O)c2c1 (as salt: salt)      Y
4  Cc1cc(C)c2nc(Nc3ccc(CN)cc3)n(Cc3nc(C)ccc3O)c2c1 (as salt: salt)      Y
5  Cc1cc(C)c2nc(NCCCN3CCCCC3)n(Cc3nc(C)ccc3O)c2c1 (as salt: salt)      Y
